# System: Candida
# Experiment notes: In vitro MIC, NCCLS M27A, Candida species
# Assay type: cell-based
# Set-up: unit not given beside the values
# Measurement conditions: C. glabrata strain 90030
MIC, C. glabrata 90030 strictly under 0.5 means TRUE; at 0.5 or over means FALSE.

                                   molecule  answer_label
0  O=c1n(-c2ccc(N3CCN(c4ccc(F)cc4Cl)CC3)cc2)cnn1CC(O)(Cn1cncn1)c1ccc(F)cc1F (centres unmarked)          TRUE
1  C[C@@H](n1ncn(-c2ccc(N3CCN(c4ccc(F)cc4)CC3)cc2)c1=O)[C@@](O)(Cn1cncn1)c1ccc(F)cc1F         FALSE
2  Cc1nn([C@H](C)[C@@](O)(Cn2cncn2)c2ccc(F)cc2F)c(=O)n1-c1ccc(N2CCN(c3ccccc3F)CC2)cc1         FALSE
3  O=c1n(-c2ccc(N3CCN(c4ccc(F)cc4)CC3)cc2)cnn1CC(O)(Cn1cncn1)c1ccc(F)cc1F (centres unmarked)          TRUE
4  C[C@@H](n1ncn(-c2ccc(N3CCN(c4cccc(C(F)(F)F)c4)CC3)cc2)c1=O)[C@](O)(Cn1cncn1)c1ccc(F)cc1F          TRUE
5  O=c1n(-c2ccc(N3CCN(c4ccc(F)cc4F)CC3)cc2)cnn1CC(O)(Cn1cncn1)c1ccc(F)cc1F (centres unmarked)         FALSE
6  Cc1ccc(N2CCN(c3ccc(-n4cnn(CC(O)(Cn5cncn5)c5ccc(F)cc5F)c4=O)cc3)CC2)c(C)c1 (centres unmarked)         FALSE
7  COc1ccccc1N1CCN(c2ccc(-n3cnn(CC(O)(Cn4cncn4)c4ccc(F)cc4F)c3=O)cc2)CC1 (centres unmarked)         FALSE

Just for reference, patent US6670363B1 is where these values come from.
